- SYSTEM_NAME: MK2 (Homo sapiens, UniProt P49137)
- Sequence (P49137 whole entry): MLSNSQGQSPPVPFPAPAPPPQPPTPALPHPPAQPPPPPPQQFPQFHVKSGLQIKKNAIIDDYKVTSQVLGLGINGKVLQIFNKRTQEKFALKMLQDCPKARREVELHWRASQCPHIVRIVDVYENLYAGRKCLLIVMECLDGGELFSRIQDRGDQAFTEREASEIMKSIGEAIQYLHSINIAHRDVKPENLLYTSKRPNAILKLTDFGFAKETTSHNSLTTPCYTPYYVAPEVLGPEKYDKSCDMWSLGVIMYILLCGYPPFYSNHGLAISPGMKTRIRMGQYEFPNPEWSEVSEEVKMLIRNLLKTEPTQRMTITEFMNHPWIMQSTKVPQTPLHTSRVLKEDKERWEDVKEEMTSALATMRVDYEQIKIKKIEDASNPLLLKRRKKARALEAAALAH
- PROCEDURE_TEXT: MK2 degradation in human THP-1 monocytic cells (MSD, 24 h)
- Format: cell-based
- Set-up: endogenous in cells
- CONDITION_DETAILS: THP-1, THP-1 cells
PARAMETER: Dmax

# COMPOUND, SYSTEM_NAME, RECORDED_MEASUREMENT
records = [
    ("C[C@@H]1CNc2c(sc3ccc4nc(N5CC6CCC(C5)N6CC5CCN(c6cccc7c6n(C)c(=O)n7C6CCC(=O)NC6=O)CC5)ccc4c23)C(=O)N1 (stereo partly drawn) [Compound I-436]", "MK2 (Homo sapiens, UniProt P49137)", "< 50%"),
    ("COc1cc(-c2ccc3c(ccc4sc5c(c43)NC[C@@H](C)NC5=O)n2)c(F)cc1N1CCN(CC2CCN(c3ccc4c(c3)n(C)c(=O)n4C3CCC(=O)NC3=O)CC2)CC1 (stereo partly drawn) [Compound I-180]", "MK2 (Homo sapiens, UniProt P49137)", "> 75%"),
    ("C[C@@H]1CNc2c(sc3ccc4nc(N5CCC6(CC5)CC(N5CCN(c7ccc8c(c7)n(C)c(=O)n8C7CCC(=O)NC7=O)CC5)C6)ccc4c23)C(=O)N1 (stereo partly drawn) [Compound I-185]", "MK2 (Homo sapiens, UniProt P49137)", "> 75%"),
    ("Cn1c(=O)n(C2CCC(=O)NC2=O)c2ccc(N3CCC(CN4CCN(c5ccc6cc(-c7cc(Nc8ccnc(N)n8)cc8cn[nH]c78)oc6c5)CC4)CC3)cc21 (stereo not drawn) [Compound I-454]", "MK2 (Homo sapiens, UniProt P49137)", "< 50%"),
    ("Cc1cnc(-c2ccnc(C(=O)NCCCCCCc3ccc4c(c3)n(C)c(=O)n4C3CCC(=O)NC3=O)n2)cc1-n1c(C)cc(OCc2ncc(F)cc2F)c(Cl)c1=O (stereo not drawn) [Compound I-220]", "MK2 (Homo sapiens, UniProt P49137)", "< 50%"),
    ("C[C@@H]1CNc2c(sc3ccc4nc(-c5cccc(C#CCCNC(=O)COCCOCCc6ccc7c(c6)n(C)c(=O)n7C6CCC(=O)NC6=O)c5)ccc4c23)C(=O)N1 (stereo partly drawn) [Compound I-49]", "MK2 (Homo sapiens, UniProt P49137)", "> 75%"),
    ("Cn1c(=O)n(C2CCC(=O)NC2=O)c2ccc(CCCCCCN3CC4(CCN(c5ccc6c(c5)Cn5cc(-c7ccc(F)cc7)cc5-c5nccn5-6)C4)C3)cc21 (stereo not drawn) [Compound I-168]", "MK2 (Homo sapiens, UniProt P49137)", "< 50%"),
    ("C[C@@H]1CNc2c(sc3ccc4nc(-c5ccc(N6CCC(CCN7CCN(c8ccc9c(c8)n(C)c(=O)n9C8CCC(=O)NC8=O)CC7)CC6)cc5)ccc4c23)C(=O)N1 (stereo partly drawn) [Compound I-131]", "MK2 (Homo sapiens, UniProt P49137)", "> 75%"),
    ("C[C@@H]1CNc2c(sc3ccc4nc(-c5cccc(N6CCC(CN7CCN(c8cccc9c(N%10CCC(=O)NC%10=O)cncc89)CC7)CC6)c5)ccc4c23)C(=O)N1 [Compound I-310]", "MK2 (Homo sapiens, UniProt P49137)", "> 75%"),
    ("Cn1c(=O)n(C2CCC(=O)NC2=O)c2ccc(N3CCC(CN4CCN(c5cc(C#N)cc(-n6cc(-c7ccc8c(c7)CCNC8=O)c(N)n6)c5)CC4)CC3)cc21 (stereo not drawn) [Compound I-458]", "MK2 (Homo sapiens, UniProt P49137)", "< 50%"),
    ("C[C@@H]1CNc2c(sc3ccc4nc(-c5cccc(N6CCN(CCCCCCCCc7ccc8c(c7)n(C)c(=O)n8C7CCC(=O)NC7=O)CC6)c5)ccc4c23)C(=O)N1 (stereo partly drawn) [Compound I-176]", "MK2 (Homo sapiens, UniProt P49137)", "50 to 75%"),
    ("C[C@@H]1CN(C)c2c(sc3ccc4nc(-c5ccc(N6CCN(CCc7cccc8c7n(C)c(=O)n8C7CCC(=O)NC7=O)CC6)nc5)ccc4c23)C(=O)N1 (stereo partly drawn) [Compound I-414]", "MK2 (Homo sapiens, UniProt P49137)", "> 75%"),
    ("C[C@@H]1CNc2c(sc3ccc4nc(-c5ccnc(N6CCN(CC7CCN(c8ccc9c(c8)n(C)c(=O)n9C8CCC(=O)NC8=O)CC7)CC6)c5)ccc4c23)C(=O)N1 (stereo partly drawn) [Compound I-278]", "MK2 (Homo sapiens, UniProt P49137)", "> 75%"),
    ("C[C@@H]1CNc2c(sc3ccc4nc(-c5ccc(N6CCN(C[C@H]7CCN(c8ccc9c(c8)n(C)c(=O)n9C8CCC(=O)NC8=O)C7)CC6)cc5)ccc4c23)C(=O)N1 (stereo partly drawn) [Compound I-195]", "MK2 (Homo sapiens, UniProt P49137)", "> 75%"),
    ("COc1ccc2c(c1N1CCC(CN3CCN(c4ccc(-c5ccc6c(ccc7sc8c(c76)NC[C@@H](C)NC8=O)n5)cn4)CC3)CC1)n(C)c(=O)n2C1CCC(=O)NC1=O (stereo partly drawn) [Compound I-255]", "MK2 (Homo sapiens, UniProt P49137)", "> 75%"),
    ("CN1CC2(CNC(=O)c3c2[nH]c2c3CCc3cnc(-c4cc(N5CCN(CCCCc6cccc7c6n(C)c(=O)n7C6CCC(=O)NC6=O)CC5)ccc4F)cc3-2)C1 (stereo not drawn) [Compound I-155]", "MK2 (Homo sapiens, UniProt P49137)", "< 50%"),
    ("C[C@@H]1CNc2c(sc3ccc4nc(-c5ccnc(N6CCC(CN7CCN(c8ccc9c(c8)n(C)c(=O)n9C8CCC(=O)NC8=O)CC7)CC6)c5)ccc4c23)C(=O)N1 (stereo partly drawn) [Compound I-277]", "MK2 (Homo sapiens, UniProt P49137)", "> 75%"),
    ("COc1ccc2c(c1N1CCN(CC3CCN(c4ccc(-c5ccc6c(ccc7sc8c(c76)NC[C@@H](C)NC8=O)n5)cn4)CC3)CC1)n(C)c(=O)n2C1CCC(=O)NC1=O (stereo partly drawn) [Compound I-256]", "MK2 (Homo sapiens, UniProt P49137)", "> 75%"),
    ("C[C@@H]1CNc2c(sc3ccc4nc(N5C[C@H]6CC[C@@H]5CN6CC5CCN(c6cccc7c6n(C)c(=O)n7C6CCC(=O)NC6=O)CC5)ccc4c23)C(=O)N1 (stereo partly drawn) [Compound I-452]", "MK2 (Homo sapiens, UniProt P49137)", "50 to 75%"),
    ("Cc1cc(N2CCC(CN3CCN(c4ccc5c(c4)n(C)c(=O)n5C4CCC(=O)NC4=O)CC3)CC2)ccc1-c1ccc2c(ccc3sc4c(c32)NC[C@@H](C)NC4=O)n1 (stereo partly drawn) [Compound I-298]", "MK2 (Homo sapiens, UniProt P49137)", "> 75%"),
    ("C[C@@H]1CNc2c(sc3ccc4nc(N5CC6CCC(C5)N6CC5CCN(c6ccc7c(c6)n(C)c(=O)n7C6CCC(=O)NC6=O)CC5)ccc4c23)C(=O)N1 (stereo partly drawn) [Compound I-433]", "MK2 (Homo sapiens, UniProt P49137)", "< 50%"),
]

---

- SYSTEM_NAME: MK2 (Homo sapiens, UniProt P49137)
- PROCEDURE_TEXT: MK2 degradation in human SW1353 cells (MSD, 24 h)
- Format: cell-based
- Design: endogenous in cells; host or cells: SW-1353 (ATCC HTB-94)
- CONDITION_DETAILS: read-out: MK2 MSD SW 1353 24 h Dmax %
PARAMETER: Dmax

# COMPOUND, SYSTEM_NAME, RECORDED_MEASUREMENT
records = [
    ("C[C@@H]1CNc2c(sc3ccc4nc(-c5cccc(C#CCNC(=O)COCCOCCc6cccc7c6n(C)c(=O)n7C6CCC(=O)NC6=O)c5)ccc4c23)C(=O)N1 (stereo partly drawn)", "MK2 (Homo sapiens, UniProt P49137)", "> 75%"),
    ("C[C@@H]1CNc2c(sc3ccc4nc(-c5cccc(N6CCN(C(=O)COCCOCCOCCOCCc7ccc8c(c7)n(C)c(=O)n8C7CCC(=O)NC7=O)CC6)c5)ccc4c23)C(=O)N1 (stereo partly drawn)", "MK2 (Homo sapiens, UniProt P49137)", "> 75%"),
    ("Cn1c(=O)n(C2CCC(=O)NC2=O)c2ccc(C3CCN(CC4CCN(c5ccc(-c6cc(-c7cc8c([nH]7)CCNC8=O)ccn6)c(F)c5)CC4)CC3)cc21 (stereo not drawn)", "MK2 (Homo sapiens, UniProt P49137)", "> 75%"),
]

---

- SYSTEM_NAME: MK2 (Homo sapiens)
- PROCEDURE_TEXT: MK2 degradation in human THP-1 monocytic cells (MSD, 24 h)
- Format: cell-based
- Set-up: endogenous in cells
- CONDITION_DETAILS: THP-1 cells, read-out: MK2 MSD THP-1 degradation 24 h GMean External Abs DC50
Reported DC50 by item:
PARAMETER: DC50

# MOLECULE, RECORDED_MEASUREMENT
data = [
    ("C[C@@H]1CNc2c(sc3ccc4nc(-c5ccc(N6CCC(CN7CCC(c8cccc9c(N%10CCC(=O)NC%10=O)cncc89)CC7)CC6)cc5)ccc4c23)C(=O)N1 [Compound I-311]", "1 to 10 nM"),
    ("Cn1c(=O)n(C2CCC(=O)NC2=O)c2cccc(C3CCN(CC4CCN(c5ccc(-c6cc(-c7cc8c([nH]7)CCNC8=O)ccn6)c(F)c5)CC4)CC3)c21 (centres unmarked) [Compound I-137]", "1 to 10 nM"),
    ("Cc1cc(N2CCN(CC3CN(c4ccc5c(c4)n(C)c(=O)n5C4CCC(=O)NC4=O)C3)CC2)ncc1-c1ccc2c(ccc3sc4c(c32)NC[C@@H](C)NC4=O)n1 (some centres unmarked) [Compound I-250]", "< 1 nM"),
    ("Cn1c(=O)n(C2CCC(=O)NC2=O)c2ccc(C3CCN(CC4CCN(c5ccc(-c6cc(-c7cc8c([nH]7)CCNC8=O)ccn6)c(F)c5)CC4)CC3)cc21 (centres unmarked) [Compound I-305]", "< 1 nM"),
    ("Cn1c(=O)n(C2CCC(=O)NC2=O)c2cccc(C3CCN(CC4CCN(c5ccc(F)c(-c6cc(-c7cc8c([nH]7)CCNC8=O)ccn6)c5)CC4)CC3)c21 (centres unmarked) [Compound I-146]", "> 100 nM"),
    ("Cn1c(=O)n(C2CCC(=O)NC2=O)c2cccc(CCCCCCN3CC4(CCN(c5ccc6c(c5)Cn5cc(-c7ccc(F)cc7)cc5-c5nccn5-6)C4)C3)c21 (centres unmarked) [Compound I-257]", "> 100 nM"),
    ("Cn1c(=O)n(C2CCC(=O)NC2=O)c2ccc(N3CC(CN4CCN(c5ccc(-c6cc(-c7cc8c([nH]7)C7(CC7)CNC8=O)ccn6)cc5)CC4)C3)cc21 (centres unmarked) [Compound I-189]", "< 1 nM"),
    ("C[C@@H]1CNc2c(sc3ccc4nc(N5CCN(C6CC7(CCN(c8cccc9c8n(C)c(=O)n9C8CCC(=O)NC8=O)CC7)C6)CC5)ccc4c23)C(=O)N1 (some centres unmarked) [Compound I-443]", "< 1 nM"),
    ("C[C@@H]1CNc2c(sc3ccc4nc(-c5ccc(C6CCN(CC7CCN(c8cccc9c8n(C)c(=O)n9C8CCC(=O)NC8=O)CC7)CC6)nc5)ccc4c23)C(=O)N1 (some centres unmarked) [Compound I-122]", "< 1 nM"),
    ("C[C@@H]1CNc2c(sc3ccc4nc(N5CCCN(C6CC7(CCN(c8ccc9c(c8)n(C)c(=O)n9C8CCC(=O)NC8=O)CC7)C6)CC5)ccc4c23)C(=O)N1 (some centres unmarked) [Compound I-411]", "10 to 100 nM"),
    ("Cn1c(=O)n(C2CCC(=O)NC2=O)c2cccc(CCCN3CCN(c4ccc(-c5cc(-c6cc7c([nH]6)C6(CC6)CNC7=O)ccn5)cc4)CC3)c21 (centres unmarked) [Compound I-241]", "1 to 10 nM"),
]
